- System: AMP-activated protein kinase (AMPK)
- Assay text: ADP Quest assay for AMPK activators
- Format: biochemical
- Design: key: fold AMPK activation with vs without activator at 30 µM
- Details: fold of AMPK activation to phosphorylate SAMS peptide without and with an activator at the concentration of 30 µM
Assay endpoint: E30

Look over these answered cases.
INSERT INTO results (compound, subject_of_test, measured_value) VALUES
  ('CC1(C)Cc2cc(C(=O)O)ccc2NC1c1ccccc1NS(=O)(=O)c1cccc(F)c1 (centres unmarked)', 'AMP-activated protein kinase (AMPK)', 2.09),
  ('CC1(C)Cc2cc(C(=O)NS(=O)(=O)C3CC3)ccc2NC1c1cc(Cl)cc(N2CCOCC2)c1 (centres unmarked)', 'AMP-activated protein kinase (AMPK)', 1.26),
  ('CC1(C)Cc2cc(C(=O)O)ccc2NC1c1ccc(F)c(NC(=O)c2ccc(F)cc2Cl)c1 (centres unmarked)', 'AMP-activated protein kinase (AMPK)', 1.3),
  ('CC1(C)Cc2cc(C(=O)O)ccc2NC1c1cccc(C(=O)NC2CCC2)c1 (centres unmarked)', 'AMP-activated protein kinase (AMPK)', 1.34);

1. CC1(C)Cc2cc(C(=O)O)ccc2NC1c1cccc(NC(=O)c2cccnc2)c1 (centres unmarked)
2. CC(C)(Nc1cccc(C2Nc3ccc(Cl)cc3CC2(C)C)c1)C(=O)O (centres unmarked)
Exercise: Thinking about recorded E30 values, which is higher, 1 or 2 ? Record your answer as the label of the chosen record.
Solution: 2
(2: 2.19, 1: 1.33)

====

- System: AMP-activated protein kinase (AMPK)
- Assay text: ADP Quest assay for AMPK activators
- Format: biochemical
- Set-up: key: fold AMPK activation with vs without activator at 30 µM
- Details: fold of AMPK activation to phosphorylate SAMS peptide without and with an activator at the concentration of 30 µM
Assay endpoint: E30

INSERT INTO assay_data (compound, subject_of_test, measured_value) VALUES
  ('CCc1nnnn1-c1cccc(C2Nc3ccc(C(=O)O)cc3CC2(C)C)c1 (stereo not shown) [Example 148]', 'AMP-activated protein kinase (AMPK)', 1.3),
  ('Cc1ccc(N2CCN(c3cccc(C4Nc5ccc(C(=O)NS(C)(=O)=O)cc5CC4(C)C)c3)CC2)c(C)c1 (stereo not shown) [Example 90]', 'AMP-activated protein kinase (AMPK)', 1.44),
  ('CC1(C)Cc2cc(C(=O)O)ccc2NC1c1cccc(C(=O)NS(C)(=O)=O)c1 (stereo not shown) [Example 179]', 'AMP-activated protein kinase (AMPK)', 1.33),
  ('CC1(C)Cc2cc(C(=O)O)ccc2NC1c1ccc(Cl)c(NC(=O)C2CCCCC2)c1 (stereo not shown) [Example 195]', 'AMP-activated protein kinase (AMPK)', 1.25);

====

- Test system: AMP-activated protein kinase (AMPK)
- Assay text: ADP Quest assay for AMPK activators
- Format: biochemical
- Set-up: key: fold AMPK activation with vs without activator at 30 µM
- Details: fold of AMPK activation to phosphorylate SAMS peptide without and with an activator at the concentration of 30 µM
Assay endpoint: E30

INSERT INTO measurements (compound, subject_of_test, measured_value) VALUES
  ('CCN(CC)C(=O)Nc1cccc(C2Nc3ccc(C(=O)O)cc3CC2(C)C)c1 (stereo not shown) [Example 36]', 'AMP-activated protein kinase (AMPK)', 1.37),
  ('CC1(C)Cc2cc(C(=O)NS(C)(=O)=O)ccc2NC1c1ccc(F)c(N2CCOCC2)c1 (stereo not shown) [Example 59]', 'AMP-activated protein kinase (AMPK)', 1.2),
  ('CC1(C)Cc2cc(C(=O)O)ccc2NC1c1ccc(NC(=O)Cc2ccccc2)cc1 (stereo not shown) [Example 193]', 'AMP-activated protein kinase (AMPK)', 1.26),
  ('CC1(C)Cc2c(ccc(F)c2C(=O)NS(C)(=O)=O)NC1c1cccc(N2CCOCC2)c1 (stereo not shown) [Example 118]', 'AMP-activated protein kinase (AMPK)', 1.64),
  ('Cc1ccccc1N1CCN(c2cccc(C3Nc4c(cccc4C(=O)O)CC3(C)C)c2)CC1 (stereo not shown) [Example 94]', 'AMP-activated protein kinase (AMPK)', 1.33),
  ('Cc1ccccc1N1CCN(c2cccc(C3Nc4c(cc(F)cc4C(=O)O)CC3(C)C)c2)CC1 (stereo not shown) [Example 92]', 'AMP-activated protein kinase (AMPK)', 1.23),
  ('CN1CCN(c2cccc(C3Nc4ccc(C(=O)NS(=O)(=O)C5CC5)cc4CC3(C)C)c2)C(=O)C1=O (stereo not shown) [Example 129]', 'AMP-activated protein kinase (AMPK)', 1.25),
  ('CC1(C)Cc2cc(C(=O)O)ccc2NC1c1cccc(C(=O)Nc2ccccc2)c1 (stereo not shown) [Example 14]', 'AMP-activated protein kinase (AMPK)', 1.2),
  ('CC1(C)Cc2cc(C(=O)O)ccc2NC1c1cccc(N2CC(=O)NCC2=O)c1 (stereo not shown) [Example 18]', 'AMP-activated protein kinase (AMPK)', 1.41),
  ('CC1(C)Cc2cc(Cl)cc(C(=O)NS(=O)(=O)C3CC3)c2NC1c1cccc(NC(=O)c2cnccn2)c1 (stereo not shown) [Example 2]', 'AMP-activated protein kinase (AMPK)', 1.42),
  ('CC1(C)Cc2cc(C(=O)NS(C)(=O)=O)ccc2NC1c1cccc(NC(=O)c2cnccn2)c1 (stereo not shown) [Example 11]', 'AMP-activated protein kinase (AMPK)', 1.25),
  ('COc1cc(C2Nc3ccc(C(=O)NS(C)(=O)=O)cc3CC2(C)C)cc(N2CCOCC2)c1 (stereo not shown) [Example 68]', 'AMP-activated protein kinase (AMPK)', 1.33),
  ('CN(C)C(=O)N(C)c1cccc(C2Nc3ccc(C(=O)O)cc3CC2(C)C)c1 (stereo not shown) [Example 30]', 'AMP-activated protein kinase (AMPK)', 1.45),
  ('CC1(C)Cc2cc(C(=O)O)ccc2NC1c1ccccc1NS(=O)(=O)c1ccccc1 (stereo not shown) [Example 220]', 'AMP-activated protein kinase (AMPK)', 1.89),
  ('CC1(C)Cc2cc(C(=O)O)ccc2NC1c1ccc(F)c(NC(=O)C2CCC2)c1 (stereo not shown) [Example 194]', 'AMP-activated protein kinase (AMPK)', 1.25),
  ('CNC(=O)C(C)(C)Nc1cccc(C2Nc3ccc(C(=O)NS(C)(=O)=O)cc3CC2(C)C)c1 (stereo not shown) [Example 39]', 'AMP-activated protein kinase (AMPK)', 1.36);
